Values were extracted from patent US12624034B2.

target: AKT1 WT (Homo sapiens, UniProt P31749); construct: expressed in transfected cells; host or cells: HEK293; test: Live cell AKT1 WT target engagement by NanoBRET competitive probe displacement in HEK293 cells; format: binding; conditions: NanoBRET live cell target engagement, HEK293 cells, 2 h at 37° C.; read-out: AKT1 WT IC50
Sequence (P31749 whole entry): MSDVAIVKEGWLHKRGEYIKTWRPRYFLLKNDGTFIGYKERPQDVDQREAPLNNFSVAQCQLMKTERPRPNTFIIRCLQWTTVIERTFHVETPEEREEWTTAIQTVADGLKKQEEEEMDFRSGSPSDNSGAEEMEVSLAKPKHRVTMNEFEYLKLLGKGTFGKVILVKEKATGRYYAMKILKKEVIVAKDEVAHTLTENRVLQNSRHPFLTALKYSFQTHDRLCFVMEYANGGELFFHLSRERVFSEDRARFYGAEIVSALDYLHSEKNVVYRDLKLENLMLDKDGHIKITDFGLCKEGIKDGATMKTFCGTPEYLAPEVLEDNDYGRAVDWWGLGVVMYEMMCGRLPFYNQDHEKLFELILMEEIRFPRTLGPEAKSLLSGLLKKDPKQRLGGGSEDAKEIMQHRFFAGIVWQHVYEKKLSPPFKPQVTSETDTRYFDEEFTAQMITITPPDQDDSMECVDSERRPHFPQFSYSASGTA
observation-type: pIC50
Interpret pIC50 as the negative base-10 log of the concentration measured in mol/L.

Query: Fill in pIC50 for Cc1ccc(C(C)N[C@H]2CCc3cc(-n4c(-c5cccnc5N)nc5ccc(-n6cccn6)nc54)ccc32)cn1 (some centres unmarked) [Compound 153] tested with AKT1 WT (Homo sapiens, UniProt P31749).
Reply: 6.92

Query: Fill in pIC50 for Nc1ncccc1-c1nc2ccc(-n3cccn3)nc2n1-c1ccc2c(c1)CC[C@@H]2NC(=O)c1ccc(F)c(F)c1 tested with AKT1 WT (Homo sapiens, UniProt P31749).
Reply: 8.09

Query: Fill in pIC50 for Cc1ccc(C(=O)N[C@H]2CCc3cc(-n4c(-c5cccnc5N)nc5ccc(-n6ccc(F)n6)nc54)ccc32)cn1 tested with AKT1 WT (Homo sapiens, UniProt P31749).
Reply: 7.94

Query: Fill in pIC50 for Cc1cncc(C(=O)N[C@H]2CCc3cc(-n4c(-c5cccnc5N)nc5ccc(-n6cccn6)nc54)ccc32)n1 tested with AKT1 WT (Homo sapiens, UniProt P31749).
Reply: 7.12

Query: Fill in pIC50 for Nc1ncccc1-c1nc2ccc(-n3cccn3)nc2n1-c1ccc2c(c1)CC[C@@H]2NC(=O)c1cc(F)c(F)c(F)c1 tested with AKT1 WT (Homo sapiens, UniProt P31749).
Reply: 7.78

====

target: AKT1 WT (Homo sapiens, UniProt P31749); construct: expressed in transfected cells; host or cells: HEK293; test: Live cell AKT1 WT target engagement by NanoBRET competitive probe displacement in HEK293 cells; assay type: binding; details: NanoBRET live cell target engagement, HEK293 cells, 2 h at 37° C.; read-out: AKT1 WT IC50
observation-type: pIC50
Interpret pIC50 as the negative base-10 log of the concentration measured in mol/L.

Query: Please give the documented pIC50 of Cn1ccc(C#Cc2cc(C(=O)N[C@H]3CCc4cc(-n5c(-c6cccnc6N)nc6ccc(-n7cccn7)nc65)ccc43)ccn2)n1
Reply: 7.94

Query: Please give the documented pIC50 of Nc1ncccc1-c1nc2ccc(-n3cccn3)nc2n1-c1ccc2c(c1)CC(F)[C@@H]2NC1CCN(C(=O)C2CC2)CC1 (single isomer, unassigned) [Compound 386]
Reply: 7.75

Query: Please give the documented pIC50 of CNC(=O)c1cccc(C(=O)N[C@H]2CCc3cc(-n4c(-c5cccnc5N)nc5ccc(-n6cccn6)nc54)ccc32)c1
Reply: 7.89

Query: Please give the documented pIC50 of Nc1ncccc1-c1nc2ccc(-n3cccn3)nc2n1-c1ccc2c(c1)CC[C@@H]2NC1CCN(C(=O)c2ccncc2)CC1
Reply: 6.32

====

biological target: AKT2 (Homo sapiens); construct: expressed in transfected cells; host or cells: HEK293; test: Live cell AKT2 target engagement by NanoBRET competitive probe displacement in HEK293 cells; type: binding; conditions: NanoBRET live cell target engagement, HEK293 cells, 2 h at 37° C.; read-out: AKT2 IC50
Sequence (P31751 whole entry): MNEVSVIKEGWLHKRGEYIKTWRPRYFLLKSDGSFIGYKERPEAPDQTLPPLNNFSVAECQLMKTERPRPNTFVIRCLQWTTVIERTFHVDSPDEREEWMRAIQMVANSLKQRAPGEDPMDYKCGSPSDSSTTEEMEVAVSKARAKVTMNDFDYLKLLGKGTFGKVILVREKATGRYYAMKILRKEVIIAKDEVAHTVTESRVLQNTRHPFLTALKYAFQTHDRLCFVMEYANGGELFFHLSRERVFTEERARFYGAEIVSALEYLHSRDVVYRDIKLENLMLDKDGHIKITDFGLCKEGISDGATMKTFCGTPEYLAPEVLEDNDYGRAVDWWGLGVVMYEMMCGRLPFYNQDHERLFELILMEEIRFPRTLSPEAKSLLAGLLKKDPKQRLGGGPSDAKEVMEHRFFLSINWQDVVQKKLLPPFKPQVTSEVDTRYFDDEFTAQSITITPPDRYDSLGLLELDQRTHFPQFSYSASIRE
Would you mind telling me the reported pIC50 of each entry?
Interpret pIC50 as the negative base-10 log of the concentration measured in mol/L.

Query: Please give the documented pIC50 of Cn1cc(C(=O)N[C@H]2CCc3cc(-n4c(-c5cccnc5N)nc5ccc(-n6cccn6)nc54)ccc32)cn1 [Compound 39]
Reply: 6.12

Query: Please give the documented pIC50 of Cc1cnc(C(=O)N[C@H]2CCc3cc(-n4c(-c5cccnc5N)nc5ccc(-n6cccn6)nc54)ccc32)cn1 [Compound 185]
Reply: 5.81

Query: Please give the documented pIC50 of Nc1ccc(C(=O)N[C@H]2CCc3cc(-n4c(-c5cccnc5N)nc5ccc(-n6cccn6)nc54)ccc32)cn1 [Compound 311]
Reply: 6.72

Query: Please give the documented pIC50 of Nc1ncccc1-c1nc2ccc(-n3cccn3)nc2n1-c1ccc2c(c1)CC[C@@H]2NC(=O)c1cccnc1CO [Compound 152]
Reply: 6.01

Query: Please give the documented pIC50 of Nc1ncccc1-c1nc2ccc(-n3cccn3)nc2n1-c1ccc2c(c1)CC[C@@H]2NC(=O)c1ccn(C2CC2)n1 [Compound 215]
Reply: 6.42

Query: Please give the documented pIC50 of CN(C)c1cc(C(=O)N[C@H]2CCc3cc(-n4c(-c5cccnc5N)nc5ccc(-n6cccn6)nc54)ccc32)ccn1 [Compound 63]
Reply: 7.90

Query: Please give the documented pIC50 of CNC(=O)c1ccc(C(=O)N[C@H]2CCc3cc(-n4c(-c5cccnc5N)nc5ccc(-n6cccn6)nc54)ccc32)cc1 [Compound 256]
Reply: 7.13

Query: Please give the documented pIC50 of Nc1ncccc1-c1nc2ccc(-n3cccn3)nc2n1-c1ccc2c(c1)CC[C@@H]2NC(=O)c1ccccc1F [Compound 333]
Reply: 7.23

Query: Please give the documented pIC50 of COc1ncc(C(=O)N[C@H]2CCc3cc(-n4c(-c5cccnc5N)nc5ccc(-n6cccn6)nc54)ccc32)cn1 [Compound 23]
Reply: 7.33

Query: Please give the documented pIC50 of Nc1ncccc1-c1nc2ccc(-n3cccn3)nc2n1-c1ccc2c(c1)CC[C@@H]2N [Example 2]
Reply: 6.07

Query: Please give the documented pIC50 of Cc1ncccc1C(=O)N[C@@H]1c2ccc(-n3c(-c4cccnc4N)nc4ccc(-n5cccn5)nc43)cc2CC1(F)F [Compound 187]
Reply: 7.67

Query: Please give the documented pIC50 of Nc1ncccc1-c1nc2ccc(-n3cccn3)nc2n1-c1ccc2c(c1)CC[C@@H]2n1cc(-c2ccncc2)nn1 [Compound 198]
Reply: 6.95
